# Tested on: Manduca sexta
# method-description: Sterol distribution in experimental hornworms (capillary GC of gut-purged prepupae)
# Type: in vivo, tobacco hornworm (Manduca sexta)
# experimental-parameters: fed at 50 ppm in diet; mean relative area % of GC, 4 hornworms, S.D. in parentheses
We begin with a simple list: items and their reported Relative percent sterol: cholesterol.

Consider the reported Relative percent sterol: cholesterol for these molecules:
CC(C)[C@@H](CCF)CC[C@@H](C)[C@H]1CC[C@H]2[C@@H]3CC=C4C[C@@H](O)CC[C@]4(C)[C@H]3CC[C@]12C = 82.5(2) %
CC(C)[C@H](CCF)CC[C@@H](C)[C@H]1CC[C@H]2[C@@H]3CC=C4C[C@@H](O)CC[C@]4(C)[C@H]3CC[C@]12C = 82.4(8) %
CC(C)/C(=C/CF)CC[C@@H](C)[C@H]1CC[C@H]2[C@@H]3CC=C4C[C@@H](O)CC[C@]4(C)[C@H]3CC[C@]12C = 82.2(2) %

Attention now turns to another entry.
Query (molecule): CC(C)[C@H](/C=C/[C@@H](C)[C@H]1CC[C@H]2[C@@H]3CC=C4C[C@@H](O)CC[C@]4(C)[C@H]3CC[C@]12C)CCF ; field requested: Relative percent sterol: cholesterol 65.6(8) %
